All values here come from PubChem BioAssay (NCATS).

tested on: HEK293; experiment: Cytotoxic Profiling of Annotated Libraries Using Quantitative High-Throughput Screening (AID 1296008); settings: Five cell lines viability, CellTiter-Glo ATP luminescence, 48-72 h; stronger effect = lower value; also: % is scaled to controls: 0 for no effect and ±100 for the full control effect; nearly all actives have a fitted effect of over 60% in size
Results filed as inconclusive are left out. Calls of active or inactive are those of the source. Calls follow the shape of the dose curve; as a rule, active = well fitted inhibition curve with a large enough effect; inconclusive = small, poorly fitted or top-dose-only effect; inactive = flat fitted curve, though single readings scatter.
Overview of recorded max response for various molecules

Recorded max response, per entry:
CCN(CC)CCc1c[nH]c2ccccc12 = -22% (inactive)
CCN[C@@H](C)Cc1cccc(C(F)(F)F)c1 = 3.69% (inactive)
C[C@]12CC[C@@H]3c4ccc(OC(=O)N(CCCl)CCCl)cc4CC[C@H]3[C@@H]1CC[C@@H]2OP(=O)(O)O = -12.2% (inactive)
COc1cc(CC(C)N)cc(OC)c1OC (stereo not drawn) = -9.05% (inactive)
CCCCCCC(=O)CCCCCC/C=C/C[C@@H](O)[C@H](O)[C@@](N)(CO)C(=O)O = -0.716% (inactive)

Output measured max response for this item: c1ccc2c(c1)sc1ccccc12 0.977% (inactive)

Give a short answer stating reported max response for O=[N+]([O-])O[C@H]1CO[C@H]2[C@@H]1OC[C@H]2O[N+](=O)[O-] . 1.42% (inactive)

Provide max response value for the following molecule: NC1=NC(=O)C(c2ccccc2)O1 (stereo not drawn) 2.82% (inactive)

Respond only with max response recorded for Cc1ncsc1CCCl -8.24% (inactive)

Give max response for the following molecule: c1ccc(CN2CCNCC2)cc1 -21.3% (inactive)

----------
Catalogue of compounds with associated parasite growth, % of DMSO control
test: qHTS profiling of the MIPE4 collection as inhibitors of Plasmodium falciparum (3D7) proliferation (AID 743344);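 also: scaled between DMSO vehicle wells and 0.29 µM artemisinin as full inhibition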; details: P. falciparum 3D7 in erythrocytes, SYBR Green DNA fluorescence, 72 h; at 28.5 µM (top of the series) unless noted
Express the result in % but write the number alone.

Consider the following illustrative entries.
CN1C(=O)CCS(=O)(=O)C1c1ccc(Cl)cc1 (stereo not drawn) = 98.6
CC(C)OC(=O)OCOP(=O)(CO[C@H](C)Cn1cnc2c(N)ncnc21)OCOC(=O)OC(C)C = 292

Then there is this compound:
Fill in reported parasite growth, % of DMSO control for this entry: CC(C)c1cccc(C(C)C)c1O 89.1

----------
test system: AA1029; test: qHTS profiling for inhibitors of Plasmodium falciparum proliferation (AID 504749); also: nearly all actives have a fitted effect of over 60% in size; conditions: P. falciparum in erythrocytes, SYBR Green DNA, 72 h; series mostly up to 28.7 µM
Records with an inconclusive call do not appear. Activity calls are given as the source filed them. Calls come from the whole dose curve; as a rule, active = well fitted inhibition curve with a large enough effect; inconclusive = small, poorly fitted or top-dose-only effect; inactive = flat fitted curve, though single readings scatter.
Outcomes you can answer with include only these: true (1) = active, false (0) = inactive

Before answering, review these 5 worked examples.
Nc1ccc([As](=O)(O)O)cc1 = false (0)
CCOC(=O)CC(SP(=S)(OC)OC)C(=O)OCC (stereo unspecified) = false (0)
O=c1[nH]oc2c1CCNC2 = false (0)
O=C(O)CCCc1ccc(N(CCCl)CCCl)cc1 = false (0)
NC(=O)CS(=O)C(c1ccccc1)c1ccccc1 (stereo unspecified) = false (0)

Kindly provide the recorded test outcome for the following molecule: C=C(C)[C@H]1CN[C@H](C(=O)O)[C@H]1CC(=O)O false (0)

In this assay, the call recorded for CC(C)(C)NCC(O)c1cc(Cl)c(N)c(C(F)(F)F)c1 (stereo unspecified) was what? true (1)

Which outcome did this test record for the molecule O=C1Nc2ccc(Cl)cc2C(c2ccccc2)=NC1O (stereo unspecified) ? false (0)

Look up the recorded call for CN1C(=O)CC(=O)N(c2ccccc2)c2cc(Cl)ccc21 in this test. false (0)

----------
experiment: Primary qHTS to identify inhibitors of SARS-CoV-2 cell entry (AID 1645846); conditions: SARS-CoV-2 pseudovirus cell entry assay, luminescence; at 57.1 µM (top of the series) unless noted; also: nearly all actives have a fitted effect of over 45% in size
Results filed as inconclusive are left out.
Entries and their activity change, negative = inhibition
Note: unit % is implicit; provide only the numeric part.

In the examples that follow, each entry is paired with its recorded activity change, negative = inhibition.
CC(=O)OCC[N+](C)(C)C = 3.83
CN1C[C@H](C(=O)N[C@]2(C)O[C@@]3(O)[C@@H]4CCCN4C(=O)[C@H](Cc4ccccc4)N3C2=O)C=C2c3cccc4[nH]cc(c34)C[C@H]21 = -28.9
O=[N+]([O-])O[C@H]1CO[C@H]2[C@@H]1OC[C@H]2O[N+](=O)[O-] = -33.3
COCCOC(=O)C1=C(C)NC(C)=C(C(=O)OC(C)C)C1c1cccc([N+](=O)[O-])c1 (stereo not given) = -23.8

Continue with the compound presented below.
Given the compound C[N+](C)(CCOc1ccccc1)Cc1cccs1 , write its reported activity change, negative = inhibition. -23

----------
assay: qHTS profiling of the MIPE4 collection as inhibitors of Plasmodium falciparum (DD2) proliferation (AID 743345); settings: P. falciparum Dd2 in erythrocytes, SYBR Green DNA, 72 h; at 28.5 µM (top of the series) unless noted
Assign labels as follows, please: yes for parasite growth remaining, % of DMSO control (lower = more inhibition) below 90%; no for parasite growth remaining, % of DMSO control (lower = more inhibition) equal to or exceeding 90%.

CCC1(c2ccc(N)cc2)CCC(=O)NC1=O (stereo not drawn) = no
O=C(O)CCCc1ccc(N(CCCl)CCCl)cc1 = yes
CC(=O)N1CCN(c2ccc(OC[C@H]3CO[C@](Cn4ccnc4)(c4ccc(Cl)cc4Cl)O3)cc2)CC1 = yes

Bench note: check whether CN1C(=O)COc2c(C(=O)NC3CN4CCC3CC4)cc(Cl)cc21 (stereo not drawn) shows parasite growth remaining, % of DMSO control (lower = more inhibition) below 90% yes

Hi there! Is parasite growth remaining, % of DMSO control (lower = more inhibition) for C[C@](O)(CS(=O)(=O)c1ccc(F)cc1)C(=O)Nc1ccc(C#N)c(C(F)(F)F)c1 below 90%, do you know? no

Input COCCCOc1ccnc(CS(=O)c2nc3ccccc3[nH]2)c1C (stereo not drawn) ; condition: parasite growth remaining, % of DMSO control (lower = more inhibition) strictly below 90%. Does it hold? yes

parasite growth remaining, % of DMSO control (lower = more inhibition) under 90%? Item: CC(C)[C@H](N)C(=O)OCCOCn1cnc2c(=O)[nH]c(N)nc21 no

Below 90% on parasite growth remaining, % of DMSO control (lower = more inhibition)? Entry CC(C)N(CCC(C(N)=O)(c1ccccc1)c1ccccn1)C(C)C (stereo not drawn) no

Consider C[C@]12CC[C@@H]3c4ccc(OC(=O)N(CCCl)CCCl)cc4CC[C@H]3[C@@H]1CC[C@@H]2OP(=O)(O)O . Does its parasite growth remaining, % of DMSO control (lower = more inhibition) lie strictly below 90%? no

Say whether its parasite growth remaining, % of DMSO control (lower = more inhibition) is strictly beneath 90%. Entry: O=P1(N(CCCl)CCCl)NCCCO1 (stereo not drawn) yes

For this molecule, is parasite growth remaining, % of DMSO control (lower = more inhibition) lower than 90%? C[C@]12CC[C@H]3[C@@H](CC[C@@]45O[C@H]4C(O)=C(C#N)C[C@]35C)[C@H]1CC[C@H]2O yes

Is parasite growth remaining, % of DMSO control (lower = more inhibition) of CC(C)OC(=O)OCOP(=O)(CO[C@H](C)Cn1cnc2c(N)ncnc21)OCOC(=O)OC(C)C strictly below 90%? yes

I'd appreciate it if you could check whether CCOC(=O)C1=C[C@@H](OC(CC)CC)[C@H](NC(C)=O)[C@@H](N)C1 has parasite growth remaining, % of DMSO control (lower = more inhibition) smaller than 90%. no

Lab note: confirm whether the reported parasite growth remaining, % of DMSO control (lower = more inhibition) for this molecule is below 90%, equality not counting. molecule: CC(NC(C)(C)C)C(=O)c1cccc(Cl)c1 (stereo not drawn) yes

----------
assay: A High-Content qHTS Against Drug Library for the Identification of Small Molecules that Inhibit DYT1 Early Onset Primary Dystonia-Associated Cell Pathology (AID 1645839); conditions: HEK293 Flp-In EGFP-delE TorsinA, punctate imaging, 48 h; series mostly up to 46.1 µM
Inconclusive results are not listed. The source made the active and inactive calls. The call rests on the fitted dose curve.
measured metric: outcome

Please review the following examples before continuing.
C[C@@H](N)[C@@H](O)c1ccccc1 = inactive
COc1ccc2c3c1O[C@H]1[C@H](O)CC[C@H]4[C@@H](C2)N(C)CC[C@@]341 = inactive
O=C(O)c1ccc(=O)[nH]c1 = inactive
CC(C)(C)NCC(O)c1ccccc1Cl (centres undefined) = inactive
COP(=S)(OC)Oc1ccc(SC)c(C)c1 = inactive

Please report the measured outcome for Clc1cccc(SC2CCNCC2)n1 inactive

Provide outcome value for the following compound: NC(=O)CS(=O)C(c1ccccc1)c1ccccc1 (centres undefined) inactive

Could you please provide reported outcome for NCCc1ccc(O)cc1 ? Thanks! inactive

For the compound C=CCC1(C(C)CC)C(=O)NC(=O)NC1=O (centres undefined) , give its reported outcome. inactive
